assay.remarks: qHTS RealTime-Glo MT Cell Viability Assay in HEK293 cells - 8 hour (AID 1224887); note: nearly all actives have a fitted effect of over 50% in size
settings: RealTime-Glo luminescence; series mostly up to 76.8 µM
Records with an inconclusive call do not appear. The source made the active and inactive calls. Calls come from the whole dose curve; as a rule, active = well fitted cell-killing curve with a large enough effect in the repeat runs; inconclusive = weak or mixed curves, or effect the other way; inactive = flat fitted curve, though single readings scatter.
Possible outcomes: true (active), false (inactive)

> print(dat)
                                    compound  label.class
 1  O=[N+]([O-])c1cc(C(F)(F)F)c(Cl)c([N+](=O)[O-])c1Nc1ncc(C(F)(F)F)cc1Cl         true
 2  ClC1(Cl)C2(Cl)C3(Cl)C4(Cl)C(Cl)(Cl)C5(Cl)C3(Cl)C1(Cl)C5(Cl)C24Cl (configuration not stated)        false
 3                                  CCCCON=O        false
 4                          Nc1nc(N)nc(Cl)n1        false
 5  O=c1c2ccccc2c(=O)c2c1cc(Cl)c1[nH]c3c([nH]c12)c(Cl)cc1c(=O)c2ccccc2c(=O)c13        false
 6  CCCC[N+]1(C)CCCC1 (tested in a mixture with another compound)        false
 7                  c1ccc2nc(N3CCNCC3)ccc2c1        false
 8  NC1CCC(CC2CCC(N)CC2)CC1 (configuration not stated)        false
 9                        ClC(Cl)C(Cl)(Cl)Cl        false
10            O=c1[nH]c2cc(Cl)ccc2n1C1CCNCC1        false
11                          O=C(Cl)c1ccccc1F        false
12               c1csc(-c2ccc(-c3cccs3)s2)c1        false
